Experiment: TIMS collisional cross section (CCS, N2) of the lipid ion; higher = larger ion cross section
Conditions: sample type: Liver; ionization mode: positive; one isomer drawn
measureName: TIMS collisional cross section (Å²)

- CCCCCCCC/C=C\CCCCCCCC(=O)OC[C@@H](COC(=O)CCCCCCCCCCCC)OC(=O)CCCCCCCCCCCCC [TG 13:0_14:0_18:1] (ion (formula + adduct): [C48H90O6+NH4] 1+): 303.1
- CCCCCCCCCCCCC(=O)OC[C@@H](COC(=O)CCCCCCCCCCC)OC(=O)CCCCCCCCCCCC [TG 12:0_13:0_13:0] (ion (formula + adduct): [C41H78O6+NH4] 1+): 282.7
- CC/C=C\C/C=C\C/C=C\C/C=C\C/C=C\C/C=C\CCC(=O)OC[C@@H](COC(=O)CCCCCCC/C=C\CCCCCC)OC(=O)CCCCCCC/C=C\CCCCCC [TG 16:1_16:1_22:6] (ion (formula + adduct): [C57H94O6+NH4] 1+): 317.3
- CCCCCCCC/C=C\CCCCCCCC(=O)O[C@H](COC(=O)CCCCCCCCCCCCCCC)COC(=O)CCCCCCCCCCCCCCCCCCCCC [TG 16:0_18:1_22:0] (ion (formula + adduct): [C59H112O6+NH4] 1+): 336.3
